These measurements were taken from ChEMBL document CHEMBL1833937.

Reported inhibition values for a set of molecules
# Tgt: Histone deacetylase (Homo sapiens) (UniProt Q13547+O15379+Q9UBN7+Q92769+Q9UQL6+Q8WUI4+Q9BY41+Q96DB2+P56524+Q9UKV0+Q969S8)
# Assay summary: Inhibition of HDAC in human HeLa nuclear extract at 200 uM after 1 hr by Fluor de Lys-based fluorescence assay
# Assay type: protein assay
Hey, just the number and the unit after it is fine.

Here's what some known entries look like.
{"Smiles entry": "CC(=S)NCCCC[C@H](NC(=O)OCc1ccccc1)C(=O)NCC(=O)c1ccccc1", "inhibition": "5.1%"}
{"Smiles entry": "CC(=S)NCCCC[C@H](NC(=O)[C@@H]1CCCN(C(=O)OC(C)(C)C)C1)C(=O)N[C@@H](C)C(=O)O", "inhibition": "23.7%"}
{"Smiles entry": "CC(=S)NCCCC[C@H](NC(=O)OCc1ccccc1)C(=O)Nc1ccccc1", "inhibition": "2.5%"}
{"Smiles entry": "CC(=S)NCCCC[C@H](NC(=O)CCc1ccccc1O)C(=O)N[C@@H](C)C(=O)O", "inhibition": "5.6%"}

With those in mind, consider the next molecule.
[in] Quick one: inhibition of CC(=S)NCCCC[C@H](NC(=O)CCc1ccccc1F)C(=O)N[C@@H](C)C(=O)O ?
[out] 16.3%
